- Tested on: normal primary NK cells, pool 1 (3 donors) (IL-2 2.5 ng/mL)
- METHOD DESCRIPTION: percent inhibition of viability; higher = more inhibition
- DETAILS: 72 h; 100 nM
MEASURED ATTRIBUTE: percent inhibition of viability (%)

{"MOLECULE": "Oc1ccc2c(c1)CC[C@H](c1ccccc1)[C@@H]2c1ccc(OCCN2CCCC2)cc1 [Lasofoxifene] (max concentration tested 1000 nM)", "ASSAY SYSTEM": "normal primary NK cells, pool 1 (3 donors) (IL-2 2.5 ng/mL)", "SCALE UNIT": "%", "OBSERVED RESULT": -10.7}
{"MOLECULE": "COc1cc(OC2CCN(C)CC2)ccc1Nc1ncc2c(n1)n(C1CCCC1)c(=O)n2C [AZ 3146] (max concentration tested 10000 nM)", "ASSAY SYSTEM": "normal primary NK cells, pool 1 (3 donors) (IL-2 2.5 ng/mL)", "SCALE UNIT": "%", "OBSERVED RESULT": -10.5}
{"MOLECULE": "CN1CCC(COc2cnc(-c3cccc(Cn4nc(-c5cccc(C#N)c5)ccc4=O)c3)nc2)CC1 (max concentration tested 1000 nM)", "ASSAY SYSTEM": "normal primary NK cells, pool 1 (3 donors) (IL-2 2.5 ng/mL)", "SCALE UNIT": "%", "OBSERVED RESULT": 1.64}
{"MOLECULE": "Nc1ncn([C@@H]2O[C@H](CO)[C@@H](O)[C@H]2O)c(=O)n1 [Azacitidine] (max concentration tested 10000 nM)", "ASSAY SYSTEM": "normal primary NK cells, pool 1 (3 donors) (IL-2 2.5 ng/mL)", "SCALE UNIT": "%", "OBSERVED RESULT": 1.35}
{"MOLECULE": "CC(C)(C)c1cnc(CSc2cnc(NC(=O)C3CCNCC3)s2)o1 [SNS-032] (max concentration tested 10000 nM)", "ASSAY SYSTEM": "normal primary NK cells, pool 1 (3 donors) (IL-2 2.5 ng/mL)", "SCALE UNIT": "%", "OBSERVED RESULT": 88.9}
{"MOLECULE": "Nc1nc(N)c2nc(-c3cccc(O)c3)c(-c3cccc(O)c3)nc2n1 [TG100-115] (max concentration tested 10000 nM)", "ASSAY SYSTEM": "normal primary NK cells, pool 1 (3 donors) (IL-2 2.5 ng/mL)", "SCALE UNIT": "%", "OBSERVED RESULT": -0.36}

---

- Tested on: SNK-6 (IL-2 2.5 ng/mL)
- METHOD DESCRIPTION: percent inhibition of viability; higher = more inhibition
- DETAILS: 72 h; 1000 nM
MEASURED ATTRIBUTE: percent inhibition of viability (%)

{"COMPOUND": "COc1cc2c(Oc3ccc4[nH]c(C)cc4c3F)ncnc2cc1OCCCN1CCCC1 [Cediranib] (max concentration tested 1000 nM)", "ASSAY SYSTEM": "SNK-6 (IL-2 2.5 ng/mL)", "OBSERVED RESULT": -2.98}
{"COMPOUND": "CS(=O)(=O)OCCCCOS(C)(=O)=O [Busulfan] (max concentration tested 100000 nM)", "ASSAY SYSTEM": "SNK-6 (IL-2 2.5 ng/mL)", "OBSERVED RESULT": 18.7}
{"COMPOUND": "Oc1ccc2c(c1)CC[C@H](c1ccccc1)[C@@H]2c1ccc(OCCN2CCCC2)cc1 [Lasofoxifene] (max concentration tested 1000 nM)", "ASSAY SYSTEM": "SNK-6 (IL-2 2.5 ng/mL)", "OBSERVED RESULT": -1.3}
{"COMPOUND": "O=C(c1ccc(OCCN2CCCCC2)cc1)c1c(-c2ccc(O)cc2)sc2cc(O)ccc12 [Raloxifene] (max concentration tested 10000 nM)", "ASSAY SYSTEM": "SNK-6 (IL-2 2.5 ng/mL)", "OBSERVED RESULT": -36.4}
{"COMPOUND": "CCn1cc(-c2ccnc3[nH]c(-c4cccc(CN(C)C)c4)cc23)c(-c2ccc(NC(=O)N(C)C)cc2)n1 (max concentration tested 1000 nM)", "ASSAY SYSTEM": "SNK-6 (IL-2 2.5 ng/mL)", "OBSERVED RESULT": 65.4}
{"COMPOUND": "Nc1nc2[nH]cnc2c(=S)[nH]1 [Thioguanine] (max concentration tested 10000 nM)", "ASSAY SYSTEM": "SNK-6 (IL-2 2.5 ng/mL)", "OBSERVED RESULT": 52.4}

---

# percent inhibition of viability per record follows
- System: NK-YS (IL-2 2.5 ng/mL)
- METHOD DESCRIPTION: percent inhibition of viability; higher = more inhibition
- DETAILS: 72 h; 1000 nM

{"COMPOUND": "Nc1nc(Cl)nc2c1ncn2[C@H]1C[C@H](O)[C@@H](CO)O1 [Cladribine] (max concentration tested 1000 nM)", "percent inhibition of viability [%]": 88.2}
{"COMPOUND": "CNC(=O)CN1CCC(Oc2cc3c(Nc4cccc(Cl)c4F)ncnc3cc2OC)CC1 [Sapitinib] (max concentration tested 1000 nM)", "percent inhibition of viability [%]": 5.37}
{"COMPOUND": "CC(=O)O[C@H]1C(=O)[C@@]2(C)[C@H]([C@H](OC(=O)c3ccccc3)[C@]3(O)C[C@H](OC(=O)[C@H](O)[C@@H](NC(=O)c4ccccc4)c4ccccc4)C(C)=C1C3(C)C)[C@]1(OC(C)=O)CO[C@@H]1C[C@@H]2O [Paclitaxel] (max concentration tested 1000 nM)", "percent inhibition of viability [%]": 64.6}
{"COMPOUND": "FC(F)c1nc2ccccc2n1-c1nc(N2CCOCC2)nc(N2CCOCC2)n1 [ZSTK474] (max concentration tested 10000 nM)", "percent inhibition of viability [%]": 36}

---

- Test system: IMC-1 (IL-2 20 ng/mL)
- METHOD DESCRIPTION: percent inhibition of viability; higher = more inhibition
- DETAILS: 72 h; 10 nM

{"MOLECULE": "COc1cc2/c(=N/c3ccc(Br)cc3F)nc[nH]c2cc1OCC1CCN(C)CC1 [Vandetanib] (max concentration tested 1000 nM)", "percent inhibition of viability": "2.06%"}
{"MOLECULE": "O=C(Nc1cccnc1)N1CCC(Cc2cccc(Oc3ccc(C(F)(F)F)cn3)c2)CC1 [PF-3845] (max concentration tested 10000 nM)", "percent inhibition of viability": "-0.47%"}
{"MOLECULE": "C[C@@H](Oc1cc(-n2cnc3ccc(CN4CCN(C)CC4)cc32)sc1C(N)=O)c1ccccc1C(F)(F)F (max concentration tested 10000 nM)", "percent inhibition of viability": "-5.88%"}
{"MOLECULE": "O=C(c1ccc(OCCN2CCCCC2)cc1)c1c(-c2ccc(O)cc2)sc2cc(O)ccc12 [Raloxifene] (max concentration tested 10000 nM)", "percent inhibition of viability": "1.43%"}
{"MOLECULE": "CCc1cc2c(cc1N1CCC(N3CCOCC3)CC1)C(C)(C)c1[nH]c3cc(C#N)ccc3c1C2=O [Alectinib] (max concentration tested 1000 nM)", "percent inhibition of viability": "-2.15%"}
{"MOLECULE": "COc1c(C)cnc(Cn2cnc3c(Cl)nc(N)nc32)c1C [BIIB021] (max concentration tested 10000 nM)", "percent inhibition of viability": "-3.95%"}
{"MOLECULE": "Cc1cnc(Nc2ccc(OCCN3CCCC3)cc2)nc1Nc1cccc(S(=O)(=O)NC(C)(C)C)c1 [Fedratinib] (max concentration tested 10000 nM)", "percent inhibition of viability": "-6.37%"}
{"MOLECULE": "CC[C@H](Nc1ncnc2[nH]cnc12)c1nc2cccc(F)c2c(=O)n1-c1ccccc1 [Idelalisib] (max concentration tested 10000 nM)", "percent inhibition of viability": "-6.45%"}
{"MOLECULE": "NC(=O)N1CCC(CC(=O)N2CCC([C@H]3c4ncc(Br)cc4CCc4cc(Cl)cc(Br)c43)CC2)CC1 [Lonafarnib] (max concentration tested 10000 nM)", "percent inhibition of viability": "-3.21%"}
{"MOLECULE": "CCn1c(=O)c(-c2cc[nH]n2)cc2c(C)nc(N)nc21 [Voxtalisib] (max concentration tested 10000 nM)", "percent inhibition of viability": "-2.45%"}
{"MOLECULE": "O=c1[nH]cc(F)c(=O)[nH]1 [Fluorouracil] (max concentration tested 10000 nM)", "percent inhibition of viability": "1.88%"}

---

- Test system: NK-92 (IL-2 2.5 ng/mL)
- METHOD DESCRIPTION: relative IC50 (inflection point of fitted viability curve, relative to fitted max inhibition); higher = less sensitive
- DETAILS: 72 h

{"COMPOUND": "O=C(Nc1cccc(C(F)(F)F)c1)Nc1cc(S(=O)(=O)NC2CC2)ccc1-c1ccsc1 [AGI-6780]", "RESULT QUALIFIER": "=", "relative IC50 (nM)": 1390}
{"COMPOUND": "CCc1cncnc1N1CCN(Cc2nc3ccc(C(F)(F)F)cc3[nH]2)CC1", "RESULT QUALIFIER": "=", "relative IC50 (nM)": 1460}
{"COMPOUND": "Cc1ccc(NC(=O)c2ccc(CN3CCN(C)CC3)cc2)cc1Nc1nc(-c2cccnc2)cs1 [Masitinib]", "RESULT QUALIFIER": "=", "relative IC50 (nM)": 3690}
{"COMPOUND": "CC(C)[C@H]1C(=O)N[C@@H](CCCNC(=N)N)C(=O)NCC(=O)N[C@@H](CC(=O)O)C(=O)N[C@H](Cc2ccccc2)C(=O)N1C [Cilengitide]", "RESULT QUALIFIER": ">", "relative IC50 (nM)": 10000}
{"COMPOUND": "CC(C)(C)c1cnc(CSc2cnc(NC(=O)C3CCNCC3)s2)o1 [SNS-032]", "RESULT QUALIFIER": "=", "relative IC50 (nM)": 224}
{"COMPOUND": "COC1=CC(c2cc3ccccc3[nH]2)=N/C1=C\\c1[nH]c(C)cc1C [Obatoclax]", "RESULT QUALIFIER": "=", "relative IC50 (nM)": 449}
{"COMPOUND": "CN1CCC(CNc2ccc3ncc(-c4cccc(OC(F)(F)F)c4)n3n2)CC1 [SGI-1776]", "RESULT QUALIFIER": "=", "relative IC50 (nM)": 2480}
{"COMPOUND": "C#Cc1cccc(Nc2ncnc3cc(OC)c(OCCCCCCC(=O)NO)cc23)c1 [CUDC-101]", "RESULT QUALIFIER": "=", "relative IC50 (nM)": 277}
